# Tested on: CCRF-CEM
# test_details: NCI tumour cell line growth inhibition, 48 h
The source made the active and inactive calls. Cut-off read from the data, not from the text of the source: active = GI50 up to about 1.1 µM and inactive = higher. Residues, ends and D or L forms follow the SMILES beside them. *: point of attachment. Boc = CC(C)(C)OC(=O)*; OBn = c1ccc(CO*)cc1; Bn = c1ccc(C*)cc1
Response enum: True = active, False = inactive

As a guide, the following entries are already answered.
COc1cc2c(c(O)c1OC)C(=O)C1CCC(=O)N1C2c1cccc2ccccc12 (centres undefined)
False
Cc1cn(C2CC(O)C(Cn3cc(Cn4ncc(=O)[nH]c4=O)nn3)O2)c(=O)[nH]c1=O (centres undefined)
True
CCCCCCC(C)CC(CCCCCC)NCCOC(=O)c1ccc([N+](=O)[O-])cc1 (centres undefined)
False
COc1cc(C2SCC(=O)N2c2cccc(Cl)c2)cc(OC)c1OC (centres undefined)
False
CC(=O)OCC1OC(NC(=S)N/N=C2\CC(c3ccccc3)Oc3ccccc32)C(OC(C)=O)C(OC(C)=O)C1OC(C)=O (centres undefined)
False
CCOC(=O)Cn1c(C(F)(F)F)nc2nc(Cl)c(Cl)nc21
False

Task: # outcome recorded in this test, key = COc1c2cc(C(C)(C)C)cc1Cc1cccc(c1OCc1cccc([N+](=O)[O-])c1)Cc1cc(C(C)(C)C)cc(c1OC)Cc1cccc(c1OCc1cccc([N+](=O)[O-])c1)Cc1cc(C(C)(C)C)cc(c1OC)Cc1cccc(c1OCc1cccc([N+](=O)[O-])c1)C2
Output: False

Task: Could you kindly confirm the outcome this assay logged for CC(C)CC(NC(=O)C(Cc1ccccc1)NC(=O)C(COCc1ccccc1)NC(=O)OC(C)(C)C)C(=O)OCc1ccccc1 (stereo not drawn) (Boc-Ser(Bn)-Phe-Leu-OBn; configuration not given here) ?
Output: False

====

# System: SF-295
# test_details: NCI tumour cell line growth inhibition, 48 h
Calls of active or inactive are those of the source. Rule as the data show it: active = GI50 up to about 1.1 µM and inactive = higher. Positions of bridges follow the written chain, without caps; N, C: chain ends. Non-standard residues stand in square brackets, D forms with d. Residues, ends and D or L forms follow the SMILES beside them. Aib = CC(C)(N)C(=O)O; βAla = NCCC(=O)O
Field: GI50. Provide a value for each of the compounds that follow.

S=C=NC1CCC(c2cc3ccccc3s2)(N2CCCCC2)CC1 (stereo not given)
2.58 µM (inactive)
Cc1cccc2c1NC(=S)[C@@H]1CCCN1C2=O
> 100 µM (inactive)
O=C(O)c1nn[nH]c1Cl
> 100 µM (inactive)
CC1(C)NC(=O)C(NC(=O)C(N)CC(=O)O)CCCCNC(=O)CCNC1=O (stereo not given) (H-DK[Aib][βAla]; lactam 2-C; configuration not given here)
> 100 µM (inactive)
CN(C)c1ccc(/C=N/c2nc3cc4sc(/N=C/c5ccc(N(C)C)cc5)nc4cc3s2)cc1
> 100 µM (inactive)
Nc1ccccc1C(=O)CCC1C(=O)NC(=S)NC1=O
> 100 µM (inactive)
N=C(N)SCCc1cn2ccccc2n1
> 100 µM (inactive)
COc1cc(C(=O)C/C(CCC(=O)Nc2ccccc2[N+](=O)[O-])=N\NC(=O)CC#N)ccc1O
> 100 µM (inactive)
CC(C)(C)O/N=C/c1cc(NC(=S)c2ccccc2)ccc1Cl
18 µM (inactive)

Please examine the following record next.
Noted for CCOC(=O)c1nc2ccc(C(F)(F)F)cc2nc1Nc1ccc(F)cc1 : its GI50 reads 49.2 µM (inactive)
